Molecular target: T1, recombinant human IL-12 (rhIL-12) (human, UniProt P29459 23-219; P29460 23-328)
T1 construct: disulfide-linked p35/p40 heterodimer (p70); also called IL-12 p70; rec. human IL12
T1 sequence (looked up) 1: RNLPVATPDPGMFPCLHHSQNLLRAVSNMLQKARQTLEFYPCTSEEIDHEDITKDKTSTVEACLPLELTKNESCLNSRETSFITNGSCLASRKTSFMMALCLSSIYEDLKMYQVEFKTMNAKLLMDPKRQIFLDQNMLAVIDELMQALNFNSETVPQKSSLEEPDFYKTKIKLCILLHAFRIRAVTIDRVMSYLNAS
T1 sequence (looked up) 2: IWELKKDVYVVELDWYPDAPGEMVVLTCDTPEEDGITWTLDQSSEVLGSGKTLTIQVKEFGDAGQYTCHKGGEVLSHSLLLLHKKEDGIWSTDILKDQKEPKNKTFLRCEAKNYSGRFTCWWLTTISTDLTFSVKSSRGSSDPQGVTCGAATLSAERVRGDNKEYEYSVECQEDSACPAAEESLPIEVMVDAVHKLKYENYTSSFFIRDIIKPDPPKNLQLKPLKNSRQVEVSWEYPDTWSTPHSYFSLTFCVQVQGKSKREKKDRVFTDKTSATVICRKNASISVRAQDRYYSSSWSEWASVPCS
Experiment: BIAcore SPR, IL-12 on chip
Measured koff of individual entries
Just the number please, in s⁻¹, no unit attached.

Observe how each entry below is paired with its result.
>  <binder>
L3.3R3M-G7 (scFv, V domains shown, scFv clone) VH: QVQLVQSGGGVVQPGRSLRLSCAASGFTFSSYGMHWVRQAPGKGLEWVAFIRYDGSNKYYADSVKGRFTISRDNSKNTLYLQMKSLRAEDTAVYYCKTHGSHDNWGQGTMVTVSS VL: SYVLTQPPSVSGTPGQRVTISCSGGRSNIGSNTVKWYQQLPGTAPKLLIYGNDQRPSGVPDRFSGSKSGTSASLAITGVQAEDEADYYCQSYDRGFTGSMVFGTGTKVTVL

>  <assay.metric>
koff

>  <unit.tag>
s⁻¹

>  <test.value>
4.24

$$$$
>  <binder>
A4 (scFv, V domains shown, scFv clone) VH: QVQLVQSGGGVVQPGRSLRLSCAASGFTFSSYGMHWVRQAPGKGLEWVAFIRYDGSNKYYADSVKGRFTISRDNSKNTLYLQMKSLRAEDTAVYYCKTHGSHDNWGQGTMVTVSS VL: SYVLTQPPSVSGTPGQRVTISCSGGRSNIGSNTVKWYQQLPGTAPKLLIYGNDQRPSGVPDRFSGSKSGTSASLAITGVQAEDEADYYCQSYDRGRNPALTFGTGTKVTVL

>  <assay.metric>
koff

>  <unit.tag>
s⁻¹

>  <test.value>
0.00063

$$$$
>  <binder>
G6 (scFv, V domains shown, scFv clone) VH: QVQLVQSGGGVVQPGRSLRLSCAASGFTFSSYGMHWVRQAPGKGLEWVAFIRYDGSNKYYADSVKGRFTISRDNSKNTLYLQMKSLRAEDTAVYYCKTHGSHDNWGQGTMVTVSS VL: SYVLTQPPSVSGTPGQRVTISCSGGRSNIGSNTVKWYQQLPGTAPKLLIYGNDQRPSGVPDRFSGSKSGTSASLAITGVQAEDEADYYCQSYDRGTHPLTIFGTGTKVTVL

>  <assay.metric>
koff

>  <unit.tag>
s⁻¹

>  <test.value>
0.000508

$$$$
>  <binder>
99-F11 (scFv, V domains shown, scFv clone) VH: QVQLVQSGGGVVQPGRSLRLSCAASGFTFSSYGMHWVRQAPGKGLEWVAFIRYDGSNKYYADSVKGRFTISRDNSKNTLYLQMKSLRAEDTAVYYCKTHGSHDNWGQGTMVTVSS VL: SYVLTQPPSVSGTPGQRVTISCSGGRSNIGSNTVKWYQQLPGTAPKLLIYGNDQRPSGVPDRFSGSKSGTSASLAITGVQAEDEADYYCQSYDSGFTGSRVFGTGTKVTVL

>  <assay.metric>
koff

>  <unit.tag>
s⁻¹

>  <test.value>
0.0054

$$$$

Per the record, Y45 (scFv, V domains shown, scFv clone) VH: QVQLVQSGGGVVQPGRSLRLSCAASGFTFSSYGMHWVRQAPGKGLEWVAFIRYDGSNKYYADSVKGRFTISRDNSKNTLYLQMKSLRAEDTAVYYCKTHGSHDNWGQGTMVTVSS VL: SYVLTQPPSVSGTPGQRVTISCSGGRSNIGSNTVKWYQQLPGTAPKLLIYGNDQRPSGVPDRFSGSKSGTSASLAITGVQAEDEADYYCQSYDRGTDPAIVFGTGTKVTVL has koff of 0.000617

Per the record, A5 (scFv, V domains shown, scFv clone) VH: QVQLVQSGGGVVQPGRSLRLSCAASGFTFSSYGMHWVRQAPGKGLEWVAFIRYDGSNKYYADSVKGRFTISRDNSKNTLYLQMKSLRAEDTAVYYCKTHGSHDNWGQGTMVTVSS VL: SYVLTQPPSVSGTPGQRVTISCSGGRSNIGSNTVKWYQQLPGTAPKLLIYGNDQRPSGVPDRFSGSKSGTSASLAITGVQAEDEADYYCQSYDRGTHPSMLFGTGTKVTVL has koff of 0.00045

Per the record, L3.3R3M-H6 (scFv, V domains shown, scFv clone) VH: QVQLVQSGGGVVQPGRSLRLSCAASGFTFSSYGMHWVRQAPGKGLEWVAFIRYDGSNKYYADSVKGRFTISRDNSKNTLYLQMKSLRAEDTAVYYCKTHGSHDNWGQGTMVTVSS VL: SYVLTQPPSVSGTPGQRVTISCSGGRSNIGSNTVKWYQQLPGTAPKLLIYGNDQRPSGVPDRFSGSKSGTSASLAITGVQAEDEADYYCQSYDRGNWPNSNFGTGTKVTVL has koff of 5.69

Per the record, L3.3R3M-H11 (scFv, V domains shown, scFv clone) VH: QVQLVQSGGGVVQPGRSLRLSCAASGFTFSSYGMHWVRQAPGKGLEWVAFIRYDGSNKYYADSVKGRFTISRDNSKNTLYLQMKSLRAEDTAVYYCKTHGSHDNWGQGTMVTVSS VL: SYVLTQPPSVSGTPGQRVTISCSGGRSNIGSNTVKWYQQLPGTAPKLLIYGNDQRPSGVPDRFSGSKSGTSASLAITGVQAEDEADYYCQSYDRGMIPALTFGTGTKVTVL has koff of 3.95

Per the record, L3.3R3M-B3 (scFv, V domains shown, scFv clone) VH: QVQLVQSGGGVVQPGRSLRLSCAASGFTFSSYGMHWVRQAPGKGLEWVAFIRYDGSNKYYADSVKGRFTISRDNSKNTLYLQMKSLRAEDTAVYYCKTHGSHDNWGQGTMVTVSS VL: SYVLTQPPSVSGTPGQRVTISCSGGRSNIGSNTVKWYQQLPGTAPKLLIYGNDQRPSGVPDRFSGSKSGTSASLAITGVQAEDEADYYCQSYDRGFTGSMVFGTGTKVTVL has koff of 5.51

Per the record, 99-G11 (scFv, V domains shown, scFv clone) VH: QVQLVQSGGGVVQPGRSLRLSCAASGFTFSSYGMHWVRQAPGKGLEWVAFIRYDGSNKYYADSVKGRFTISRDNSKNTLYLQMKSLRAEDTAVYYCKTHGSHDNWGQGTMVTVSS VL: SYVLTQPPSVSGTPGQRVTISCSGGRSNIGSNTVKWYQQLPGTAPKLLIYGNDQRPSGVPDRFSGSKSGTSASLAITGVQAEDEADYYCQSYDSRFTGSRVFGTGTKVTVL has koff of 0.0043
